experiment description: MALDI-FTICR imaging quantitation of DFMO in whole-body sections of Th-MYCN mice
Type: in vivo, mouse
conditions used: male, Th-MYCN, mouse, oral, 40 mg/day, DFMO in eye, kidney, liver, lung, testis and thymus, range from testis to eye, both treatments
measurement type: concentration at 96 h

{"compound": "NCCCC(N)(C(=O)O)C(F)F (stereo not shown) [DFMO, difluoromethylornithine]", "reported value": "14000 to 92000 ng/g"}

----------
experiment description: clinical
conditions used: human, plasma, oral, 1800 mg, AUC0-t Mean, Part 1 Cohort 5, 1800 mg QD, Cycle 1 Day 14

{"compound smiles": "CCCCCCCCCCCCCCCC(=O)NCCCC[C@@H](N)C(=O)NCCCNCCCCNCCCN", "AUC(0-t), µg·h/mL": 14.2}

----------
experiment description: clinical
conditions used: human, plasma, oral, 1800 mg, AUC0-6 hr Median, Part 1 Cohort 5, 1800 mg QD, Cycle 1 Day 1

{"compound smiles": "CCCCCCCCCCCCCCCC(=O)NCCCC[C@@H](N)C(=O)NCCCNCCCCNCCCN", "result unit": "ng·h/mL", "AUC(0-t)": 662}

----------
experiment description: clinical
conditions used: human, plasma, oral, 400 mg, AUC0-6 hr Median, Part 1 Cohort 3, 400 mg QD, Cycle 1 Day 14
Protocol: Clinical Trial Outline. […] All solid tumor types are eligible for the trial. […] An expansion cohort was included at the RP2D level to confirm safety and tolerability of the combination. […] Plasma samples were analyzed for AMXT 1501 concentration via a LC/MS^2 procedure (MI-0028-DB-AB; Agilux Laboratories, Worcester, Massachusetts), and the resulting concentration versus time data were used to estimate individual PK parameters using noncompartmental analysis (NCA).

{"compound smiles": "CCCCCCCCCCCCCCCC(=O)NCCCC[C@@H](N)C(=O)NCCCNCCCCNCCCN", "AUC(0-t) (ng·h/mL)": 304}

----------
experiment description: clinical
conditions used: human, plasma, oral, 160 mg, Tmax Median, Part 1 Cohort 2, 160 mg QD, Cycle 1 Day 14
Procedure: Clinical Trial Outline. […] All solid tumor types are eligible for the trial. […] An expansion cohort was included at the RP2D level to confirm safety and tolerability of the combination. […] Plasma samples were analyzed for AMXT 1501 concentration via a LC/MS^2 procedure (MI-0028-DB-AB; Agilux Laboratories, Worcester, Massachusetts), and the resulting concentration versus time data were used to estimate individual PK parameters using noncompartmental analysis (NCA).
measurement type: Tmax (h)

{"compound smiles": "CCCCCCCCCCCCCCCC(=O)NCCCC[C@@H](N)C(=O)NCCCNCCCCNCCCN", "reported value": 5}

----------
experiment description: clinical
conditions used: human, plasma, oral, 160 mg, AUC0-6 hr Median, Part 1 Cohort 2, 160 mg QD, Cycle 1 Day 1
measurement type: AUC(0-t) (ng·h/mL)

{"compound smiles": "CCCCCCCCCCCCCCCC(=O)NCCCC[C@@H](N)C(=O)NCCCNCCCCNCCCN", "reported value": 67.1}

----------
experiment description: clinical
conditions used: human, plasma, oral, 160 mg, Tmax Mean, Part 1 Cohort 2, 160 mg QD, Cycle 1 Day 1

{"molecule": "CCCCCCCCCCCCCCCC(=O)NCCCC[C@@H](N)C(=O)NCCCNCCCCNCCCN [AMXT 1501, D-lys(palmitoyl)-spermine]", "result unit": "h", "Tmax": 4}

----------
experiment description: clinical
conditions used: human, plasma, oral, plasma Cmax, AMXT 1501, melanoma patient, 1,200 mg daily split BID plus 1,000 mg daily DFMO

{"compound smiles": "CCCCCCCCCCCCCCCC(=O)NCCCC[C@@H](N)C(=O)NCCCNCCCCNCCCN", "Cmax, ng/mL": 239}

----------
experiment description: clinical
conditions used: human, plasma, oral, 80 mg, Tmax Mean, Part 1 Cohort 1, 80 mg QD, Cycle 1 Day 1
measurement type: Tmax (h)

{"compound smiles": "CCCCCCCCCCCCCCCC(=O)NCCCC[C@@H](N)C(=O)NCCCNCCCCNCCCN", "measurement type": "Tmax", "reported value": 4.8}

----------
experiment description: MALDI-FTICR imaging quantitation of DFMO in whole-body sections of Th-MYCN mice
Type: in vivo, mouse
conditions used: male, Th-MYCN, mouse, cardiac blood, oral, 1 % in drinking water, DFMO in Cardiac blood, DFMO alone 1% in drinking water; mice 049, 082; 96 h

{"molecule": "NCCCC(N)(C(=O)O)C(F)F (stereo not shown)", "concentration at 96 h [ng/g]": 27800}

----------
experiment description: in vivo
conditions used: male, Th-MYCN, mouse, intestine wall, sc, 2.5 mg/kg
measurement type: concentration at 96 h (ng/g)

{"compound": "CCCCCCCCCCCCCCCC(=O)NCCCC[C@@H](N)C(=O)NCCCNCCCCNCCCN [AMXT 1501, D-lys(palmitoyl)-spermine]", "reported value": 9000}

----------
experiment description: clinical
conditions used: human, plasma, oral, AUC0-t Median, Part 1 Cohort 3, 400 mg QD, Cycle 1 Day 28, +DFMO 500 mg/day

{"compound": "CCCCCCCCCCCCCCCC(=O)NCCCC[C@@H](N)C(=O)NCCCNCCCCNCCCN [AMXT 1501, D-lys(palmitoyl)-spermine]", "result unit": "ng·h/mL", "AUC(0-t)": 422}

----------
experiment description: clinical
conditions used: human, plasma, oral, 80 mg, Tmax Median, Part 1 Cohort 1, 80 mg QD, Cycle 1 Day 1

{"compound smiles": "CCCCCCCCCCCCCCCC(=O)NCCCC[C@@H](N)C(=O)NCCCNCCCCNCCCN", "Tmax (h)": 4}

----------
experiment description: clinical
conditions used: human, plasma, oral, 400 mg, Cmax Mean, Part 1 Cohort 3, 400 mg QD, Cycle 1 Day 14
Procedure: Clinical Trial Outline. […] All solid tumor types are eligible for the trial. […] An expansion cohort was included at the RP2D level to confirm safety and tolerability of the combination. […] Plasma samples were analyzed for AMXT 1501 concentration via a LC/MS^2 procedure (MI-0028-DB-AB; Agilux Laboratories, Worcester, Massachusetts), and the resulting concentration versus time data were used to estimate individual PK parameters using noncompartmental analysis (NCA).

{"compound smiles": "CCCCCCCCCCCCCCCC(=O)NCCCC[C@@H](N)C(=O)NCCCNCCCCNCCCN", "result unit": "ng/mL", "Cmax": 66.4}

----------
experiment description: MALDI-FTICR imaging quantitation of DFMO in whole-body sections of Th-MYCN mice
Format: in vivo, mouse
conditions used: male, Th-MYCN, mouse, lung, sc, 2.5 mg/kg, DFMO in Lung, COMBO (1% DFMO + AMXT 1501 2.5 mg/kg SC); mice 284, 286; 96 h
measurement type: concentration at 96 h (ng/g)

{"compound": "NCCCC(N)(C(=O)O)C(F)F (stereo not shown)", "measurement type": "concentration at 96 h", "reported value": 64700}

----------
experiment description: MALDI-FTICR imaging quantitation of DFMO in whole-body sections of Th-MYCN mice
Assay type: in vivo, mouse
conditions used: male, Th-MYCN, mouse, testis, sc, 2.5 mg/kg, DFMO in Testis, COMBO (1% DFMO + AMXT 1501 2.5 mg/kg SC); mice 284, 286; 96 h

{"compound": "NCCCC(N)(C(=O)O)C(F)F (stereo not shown) [DFMO, difluoromethylornithine]", "concentration at 96 h (ng/g)": 48200}

----------
experiment description: clinical
conditions used: human, plasma, oral, 400 mg, Tmax Median, Part 1 Cohort 3, 400 mg QD, Cycle 1 Day 14

{"compound": "CCCCCCCCCCCCCCCC(=O)NCCCC[C@@H](N)C(=O)NCCCNCCCCNCCCN [AMXT 1501, D-lys(palmitoyl)-spermine]", "Tmax": "5 h"}
